# Tested on: MS2 coat protein
# method: apparent KD of MS2 coat protein; higher = weaker reporter binding
# experimental.conditions: Eterna round: R107; input ligand: none
Use TRUE when the recorded apparent KD of MS2 coat protein is no lower than 0.06 µM; use FALSE when it is lower.

Here are 3 sequences together with their reported answers.
record.sequence	system.name	label.class
ACAUGAGGAUCACCCAUGUACAUGAGGGAAGGAGCGGUACAUGUACCAGGUAGGUCGCCCAACAGCAUCAGCCAUGUACAUCAGC [ggvmullin]	MS2 coat protein	TRUE
AUCGUACCUGAUGAUACCAGCAUGUGCUCGUAACAUGAGGAUCACCCAUGUGAUCAGUGAUGCCCUUGGCAGCAUGAUCGGUACA [Same State - Theophylline B (Freestyle 16)]	MS2 coat protein	TRUE
AACAUGAGGAUCACCCAUGUCGGGCCGGUGCGAGGACCGGUACGGCCGCCACUCGAGACAUGAGGAUCACCCAUGUUGUGCGUGA [Exclusion Tryptophan A GF23]	MS2 coat protein	TRUE

## Task Is it the case that CUUGUUUGUGGAAGGAGCGCGAUUACAUAACAUGAGGAUCACCCAUGUAAGAAAUUAUUCAUGCAGGUAGGUCGCCAUUGGUGGG [Same State Arginine B GF8] has apparent KD of MS2 coat protein reaching or exceeding 0.06 µM?
## Result TRUE

## Task Is it the case that UGUAAUGGGAUCAACCCAUGAGAGUCUGAAGGAGCGAUCGUAAGAUCAGGUAGGUCGCAGGAGACAUGAGGAUCACCCAUGUAUA [Arg A Ex t2] has apparent KD of MS2 coat protein reaching or exceeding 0.06 µM?
## Result FALSE

## Task Is it the case that GCACCAGGUACGGAUACCAGAGCAAGCCAAAUGAGUGAACUUGAGGAUCACCCAAGUUUGCUCCCUUGGCAGCCGUACCUGGUGC [ETB NP+V+V2 #12 Diff Apt, +-Same Structure] has apparent KD of MS2 coat protein reaching or exceeding 0.06 µM?
## Result FALSE

====

# Test system: MS2 coat protein
# method: apparent KD of MS2 coat protein; designed switch direction (-1 OFF switch, 1 ON switch): 1; higher = weaker reporter binding
# experimental.conditions: input ligand: microRNA oligo, concentration not stated
endpoint: apparent KD of MS2 coat protein (nM)
Give the quantity in nM, number only.

Field: example entries. Status: answers known.
record.sequence	endpoint	experimental.result
AAGAAAGACGCAGGAUAUCAGCGCAAACCGCACUGAGAAGGGUGAGACAUGAGGAUCACCCAUGUAACACGGCAAAACGCCGUG [Lausgeledi] (Eterna round: R96, puzzle: Same State NG 1)	apparent KD of MS2 coat protein	268
UGUUGUAUUACAGGAUAUCUAUUAUUUUAAUUUAGAGAAGGGUAUUCACAUGAGGAUCACCCAUGUAUAUACGAGGAAGUUGUG [JMF's solution 21] (Eterna round: R96, puzzle: Same State NG 1)	apparent KD of MS2 coat protein	38.4

Reported apparent KD of MS2 coat protein ( GCUCGUAUGAUGACCGACAUGAGGAUCACCCAUGUGUGUUGGUAGGAUAUCUAUAUUAAGGAUAUAGAGAAGGGCCGAACGAGC [SameState NG3 #16] (Eterna round: R96, puzzle: Same State NG 3) ) = 23.6

Reported apparent KD of MS2 coat protein ( GCGAGCGUACUUGCUACAUGAGGAUCACCCAUGUUUAUUGGACAGGAUAUGGUACCGUUUCGGUACCAGAAGGGUCCACAUGUA [JL SSNG3 3.85] (Eterna round: R96, puzzle: Same State NG 3) ) = 198

Reported apparent KD of MS2 coat protein ( AUUUUUAAUGCAGGAUAUGAUUAACAUGAGGAUCACCCAUGUGGUGUUGUGAGUAAGGAGAGUGAUCAGAAGGGCAAUUUUUUU [JMF's solution 78] (Eterna round: R96, puzzle: Same State NG 2) ) = 226

Reported apparent KD of MS2 coat protein ( AAGAAAGACGCAGGAUAUCAGCGCAAAACACGCUGAGAAGGGUGAGACAUGAGGAUCACCCAUGUAACACGGCAAAACGCCGUG [Atinanor] (Eterna round: R96, puzzle: Same State NG 1) ) = 122

Reported apparent KD of MS2 coat protein ( UGGCUCAGACGAGGAUAUGAUCAUGGCGCUUCGGCGCAUACAUGAGGAUCACCCAUGUAAAGUGAUCAGAAGGUGUCUGAGCCU [SSNG2/7-B3] (Eterna round: R96, puzzle: Same State NG 2) ) = 12.4

Reported apparent KD of MS2 coat protein ( AGGCUCAGACGAGGAUAUGAUCAUGGCGCUUCGGCGCAUACAUGAGGAUCACCCAUGUAGGGUGAUCAGAAGGUGUCUGAGCCA [SSNG2/8-B1] (Eterna round: R96, puzzle: Same State NG 2) ) = 505

Reported apparent KD of MS2 coat protein ( UGUACCUUCACAGGAUAUCAUGCGAAAAUUGCGUGAGAAGGGUGAAUACUGUGUUAAUAAAAGCACAUGAGGAUCACCCAUGUA [SameState NG1 #57] (Eterna round: R96, puzzle: Same State NG 1) ) = 12.7

====

# Test system: MS2 coat protein
# method: apparent KD of MS2 coat protein; designed switch direction (-1 OFF switch, 1 ON switch): -1; higher = weaker reporter binding
# experimental.conditions: Eterna round: R95; input ligand: FMN 200 uM
Use Criterion met when the recorded apparent KD of MS2 coat protein is no lower than 40 nM; use Criterion not met when it is lower.

Here are 8 sequences together with their reported answers.
record.sequence	system.name	label.class
UGUUGGCGAGGAUAUACAUGAGGAUCACCCAUGUGAGAGAAAAAAGUGAGGAAGAAAAGUAGAAGGCGCUGACG [salish99_ex3_r3_043] (puzzle: Exclusion 3)	MS2 coat protein	Criterion met
CUUCAAGCACCAGAGCUCACACUUAUACCUGCUCUGGUGACAUGAGGAUCACCCAUGUUUUUUGCCCGUCUUAUCUU [Sensor v3, turn-off variant 2 (MOD of Leso v.2)] (puzzle: Sensor v3, turn-off variant 2)	MS2 coat protein	Criterion met
ACAACAAGCUUUUUGAACGUAGAACAUGCAGCUCUAGUCACAUGAGGAUCACCCAUGUCAGCCAGUUAGAUAGGUGA [JR_SV3TOV2_Sub066] (puzzle: Sensor v3, turn-off variant 2)	MS2 coat protein	Criterion met
GUCCUCAUGACGCCUAAACACAUGAGGAUCACCCAUGUACAGGCUUUUUGUCGUCUUAUAAUAAAACCGAGGAUGCG [Xelaanen] (puzzle: Sensor v3, turn-off variant 1)	MS2 coat protein	Criterion not met
AGUACUAACACGAAAGUGUUAGUACAACAAGCUUGUGAAACAUGAGGAUCACCCAUGUCCUCAUAAGCUCGUCUUAU [salish99_TOv2_r3_042] (puzzle: Sensor v3, turn-off variant 2)	MS2 coat protein	Criterion not met
AAGUACCGUCACGAUAGUGAUGGUACAACAAGUAGUGAAACAUGAGGAUCACCCAUGUCCUCAUUUGCUCGUCUUAU [Sensor 3 - 87] (puzzle: Sensor v3, turn-off variant 2)	MS2 coat protein	Criterion met
GGUUGGCGAGGAUAUACAUGAGGAUCACCCAUGUGAAAGAAAAAAGUGAGGAAGAAAAGUAGAAGGCGCUGACG [salish99_ex3_r3_016] (puzzle: Exclusion 3)	MS2 coat protein	Criterion not met
AGUACUAACACGAUAGUGUUAGUACUAUAAGCUUGUGUUACAUGAGGAUCACCCAUGUCCUCAUAAGCUCGUCUUAA [Mat - Sensor v3 - Turn-off var 2 - D65] (puzzle: Sensor v3, turn-off variant 2)	MS2 coat protein	Criterion not met

## Task Is it the case that AUGAGCAGACGGAGAUCCAACAUGAGGAUCACCCAUGUCUCAAAAGCUUUUUGCUCAUCUUAUUGUACCUUGGUGCA [Mat - Sensor v3 - turn-off var 1 - JL Mod - D17] (puzzle: Sensor v3, turn-off variant 1) has apparent KD of MS2 coat protein reaching or exceeding 40 nM?
## Result Criterion met

## Task Is it the case that GAAAAGGUAGGAUAUACGAAGAAAAAGGGUAGAAAAAAAACACAUGAGGAUCACCCAUGUAGAAGGACCAAAAG [salish99_ex2_r3_028] (puzzle: Exclusion 2) has apparent KD of MS2 coat protein reaching or exceeding 40 nM?
## Result Criterion met

## Task Is it the case that AGUACUAACACGAAAGUGUUAGUACAAUAAGCUUGUGCAACAUGAGGAUCACCCAUGUCCUCAUAAGCUCGUCUUAU [salish99_TOv2_r3_044] (puzzle: Sensor v3, turn-off variant 2) has apparent KD of MS2 coat protein reaching or exceeding 40 nM?
## Result Criterion met

## Task Is it the case that CAUACUGAAGUUAGGAUAUGCGGCCGAAUACGGGUGUAGAAGGGACAUGAGGAUCACCCAUGUAGAUAGUAAAG [EX-4 Malc #16] (puzzle: Brourd's mod of Exclusion 4) has apparent KD of MS2 coat protein reaching or exceeding 40 nM?
## Result Criterion not met

## Task Is it the case that CAGUACUGAGGAUAUACAUGAGGAUCACCCAUGUGUUCCAGCUAGGAAACUAGCAAAAGUAGAAGGCAGUACUG [salish99_ex3_r3_064] (puzzle: Exclusion 3) has apparent KD of MS2 coat protein reaching or exceeding 40 nM?
## Result Criterion met

## Task Is it the case that UUUUAACAUGAGGAUCACCCAUGUCAGGAUAUGGUUUUUUUUUUUUUUUUUUUUUUUUCCAGAAGGGACAUUUU [My solution] (puzzle: Exclusion 1) has apparent KD of MS2 coat protein reaching or exceeding 40 nM?
## Result Criterion met

## Task Is it the case that AAGUACCGUCACGAUAGUGAUGGUACAGCAAGUAGUGAAACAUGAGGAUCACCCAUGUCCUCAAUUGCUCGUCUUAU [Sensor 3 - 82] (puzzle: Sensor v3, turn-off variant 2) has apparent KD of MS2 coat protein reaching or exceeding 40 nM?
## Result Criterion met

## Task Is it the case that UCCUUACAUGAGGAUCACCCAUGUCAGGAUAUCUCCUCACUGCGCUUGCGCAGUGGAUAGAGAAGGGACGGGCU [JL ViennaUCT Aner mod 9] (puzzle: Exclusion 1) has apparent KD of MS2 coat protein reaching or exceeding 40 nM?
## Result Criterion not met

## Task Is it the case that AAGAAGCUAGGAUAUCACACUGACAACAUGAGGAUCACCCAUGUAGGUGAUCGGUUAGCUUGAGAAGGAGCGGAGG [Laedanes] (puzzle: Exclusion 5) has apparent KD of MS2 coat protein reaching or exceeding 40 nM?
## Result Criterion met

## Task Is it the case that CGAAAGGUAGGAUAUACGAAGAAAAAGGGUAGAAGAAGAACACAUGAGGAUCACCCAUGUAGAAGGACCAAAGC [Mat - Exclusion 2 - Mod of my Tesla design - D16] (puzzle: Exclusion 2) has apparent KD of MS2 coat protein reaching or exceeding 40 nM?
## Result Criterion met

## Task Is it the case that GUGAGAUAGUUAGUGGACGACAUGAGGAUCACCCAUGUGAGGGAAAUGUUGAGGAGAAAGCUUUUUGCUCGUCUUUA [JR_SV3TOV1_Sub036] (puzzle: Sensor v3, turn-off variant 1) has apparent KD of MS2 coat protein reaching or exceeding 40 nM?
## Result Criterion met
